System: Staphylococcus aureus ATCC 43300 (MRSA)
Test: Broth dilution MIC/MBC, reference strain
Type: cell-based
Settings: Staphylococcus aureus; S. aureus ATCC 43300; read-out: MBC
Protocol: The tests were carried out using a serial dilution method, allowing the determination of MIC (minimal concentration inhibiting bacterial growth), MBC (minimal bactericidal concentration), and MFC (minimal fungicidal concentration) values. […]
Recorded Metric: MBC (µg/mL)

>>> value("Cc1cc(S(=O)(=O)NC(=O)C=Cc2ccccc2)c(SCc2cccc(C(F)(F)F)c2)cc1Cl [Compound 15]")
128
>>> value("Cc1cc(S(=O)(=O)NC(=O)C=Cc2ccccc2)c(SCc2ccc(C(F)(F)F)cc2)cc1Cl [Compound 14]")
128
>>> value("Cc1cc(S(=O)(=O)NC(=O)CCC2CCCCC2)c(SCc2cccc(C(F)(F)F)c2)cc1Cl [Compound 10]")
16

----------
Tested on: Staphylococcus epidermidis PCM 2118
Test: Broth dilution MIC/MBC, reference strain
Type: cell-based
Conditions: Staphylococcus epidermidis, PCM2118, S. epidermidis PCM 2118; read-out: MIC
Recorded Metric: MIC

>>> value("Cc1cc(S(=O)(=O)NC(=O)C=Cc2ccccc2)c(SCc2cccc(C(F)(F)F)c2)cc1Cl")
"8 µg/mL"
>>> value("Cc1cc(S(=O)(=O)NC(=O)CCC2CCCCC2)c(SCc2ccc3ccccc3c2)cc1Cl")
"4 µg/mL"
>>> value("Cc1cc(S(=O)(=O)NC(=O)CCC2CCCCC2)c(SCc2cccc(C(F)(F)F)c2)cc1Cl")
"8 µg/mL"
>>> value("Cc1cc(S(=O)(=O)NC(=O)C=Cc2ccccc2)c(SCc2ccc(C(F)(F)F)cc2)cc1Cl")
"8 µg/mL"
>>> value("Cc1cc(S(=O)(=O)NC(=O)CCC2CCCCC2)c(SCc2ccc(C(F)(F)F)cc2)cc1Cl")
"4 µg/mL"
>>> value("Cc1cc(S(=O)(=O)NC(=O)CCC2CCCCC2)c(SCc2cccc3ccccc23)cc1Cl")
"4 µg/mL"

----------
Tested on: Escherichia coli ATCC 11229
Assay: Broth dilution MIC/MBC, reference strain
Type: cell-based
Conditions: Escherichia coli, ATCC11229; E. coli ATCC 11229; read-out: MBC
Recorded Metric: MBC

>>> value("Cc1cc(S(=O)(=O)NC(=O)CCC2CCCCC2)c(SCc2ccc(C(F)(F)F)cc2)cc1Cl")
"> 128 µg/mL"
>>> value("Cc1cc(S(=O)(=O)NC(=O)C=Cc2ccccc2)c(SCc2ccc(C(F)(F)F)cc2)cc1Cl")
"128 µg/mL"
>>> value("Cc1cc(S(=O)(=O)NC(=O)CCC2CCCCC2)c(SCc2ccc3ccccc3c2)cc1Cl")
"> 128 µg/mL"
>>> value("Cc1cc(S(=O)(=O)NC(=O)CCC2CCCCC2)c(SCc2cccc3ccccc23)cc1Cl")
"> 128 µg/mL"
>>> value("Cc1cc(S(=O)(=O)NC(=O)CCC2CCCCC2)c(SCc2cccc(C(F)(F)F)c2)cc1Cl")
"> 128 µg/mL"
>>> value("Cc1cc(S(=O)(=O)NC(=O)C=Cc2ccccc2)c(SCc2cccc(C(F)(F)F)c2)cc1Cl")
"128 µg/mL"

----------
Tested on: Pseudomonas aeruginosa ATCC 15442
Assay: Broth dilution MIC/MBC, reference strain
Assay type: cell-based
Conditions: Pseudomonas aeruginosa, ATCC15442; P. aeruginosa ATCC 15442; read-out: MIC
Below, each entry is listed with its recorded MIC.
Recorded Metric: MIC (µg/mL)

>>> value("Cc1cc(S(=O)(=O)NC(=O)CCC2CCCCC2)c(SCc2cccc3ccccc23)cc1Cl")
128
>>> value("Cc1cc(S(=O)(=O)NC(=O)C=Cc2ccccc2)c(SCc2cccc(C(F)(F)F)c2)cc1Cl")
64
>>> value("Cc1cc(S(=O)(=O)NC(=O)CCC2CCCCC2)c(SCc2ccc(C(F)(F)F)cc2)cc1Cl")
128
>>> value("Cc1cc(S(=O)(=O)NC(=O)CCC2CCCCC2)c(SCc2cccc(C(F)(F)F)c2)cc1Cl")
128
>>> value("Cc1cc(S(=O)(=O)NC(=O)CCC2CCCCC2)c(SCc2ccc3ccccc3c2)cc1Cl")
128
>>> value("Cc1cc(S(=O)(=O)NC(=O)C=Cc2ccccc2)c(SCc2ccc(C(F)(F)F)cc2)cc1Cl")
64

----------
Test system: Pseudomonas aeruginosa ATCC 15442
Assay: Broth dilution MIC/MBC, reference strain
Assay type: cell-based
Conditions: P. a. ATCC 15442
Recorded Metric: MBC/MIC

>>> value("Cc1cc(S(=O)(=O)NC(=O)C=Cc2ccccc2)c(SCc2cccc(C(F)(F)F)c2)cc1Cl")
2
>>> value("Cc1cc(S(=O)(=O)NC(=O)CCC2CCCCC2)c(SCc2ccc3ccccc3c2)cc1Cl")
1

----------
System: Staphylococcus aureus ATCC 43300 (MRSA)
Test: Broth dilution MIC/MBC, reference strain
Assay type: cell-based
Settings: Staphylococcus aureus; S. aureus ATCC 43300; read-out: MIC
Recorded Metric: MIC (µg/mL)

>>> value("Cc1cc(S(=O)(=O)NC(=O)CCC2CCCCC2)c(SCc2cccc3ccccc23)cc1Cl [Compound 11]")
8
>>> value("Cc1cc(S(=O)(=O)NC(=O)CCC2CCCCC2)c(SCc2ccc3ccccc3c2)cc1Cl [Compound 12]")
8
>>> value("Cc1cc(S(=O)(=O)NC(=O)C=Cc2ccccc2)c(SCc2ccc(C(F)(F)F)cc2)cc1Cl [Compound 14]")
8

----------
Tested on: Pseudomonas aeruginosa ATCC 15442
Assay: Broth dilution MIC/MBC, reference strain
Type: cell-based
Conditions: Pseudomonas aeruginosa, ATCC15442; P. aeruginosa ATCC 15442; read-out: MBC
Recorded Metric: MBC

>>> value("Cc1cc(S(=O)(=O)NC(=O)CCC2CCCCC2)c(SCc2ccc(C(F)(F)F)cc2)cc1Cl [Compound 9]")
"> 128 µg/mL"
>>> value("Cc1cc(S(=O)(=O)NC(=O)CCC2CCCCC2)c(SCc2cccc(C(F)(F)F)c2)cc1Cl [Compound 10]")
"> 128 µg/mL"
>>> value("Cc1cc(S(=O)(=O)NC(=O)CCC2CCCCC2)c(SCc2cccc3ccccc23)cc1Cl [Compound 11]")
"> 128 µg/mL"

----------
Test system: Staphylococcus aureus ATCC 43300 (MRSA)
Experiment: Broth dilution MIC/MBC, reference strain
Format: cell-based
Details: Staphylococcus aureus; S. aureus ATCC 43300; read-out: MBC
Recorded Metric: MBC

>>> value("Cc1cc(S(=O)(=O)NC(=O)CCC2CCCCC2)c(SCc2ccc(C(F)(F)F)cc2)cc1Cl [Compound 9]")
"> 128 µg/mL"
>>> value("Cc1cc(S(=O)(=O)NC(=O)CCC2CCCCC2)c(SCc2ccc3ccccc3c2)cc1Cl [Compound 12]")
"> 128 µg/mL"
>>> value("Cc1cc(S(=O)(=O)NC(=O)CCC2CCCCC2)c(SCc2cccc3ccccc23)cc1Cl [Compound 11]")
"> 128 µg/mL"
